FYI, the data here is from ChEMBL document CHEMBL1201862.

Reported GI50 values for a set of compounds
- Test system: MDA-MB-231
- Assay Summary: NCI tumour cell line growth inhibition, 48 h
Activity calls are given as the source filed them. Cut-off read from the data, not from the text of the source: active = GI50 up to about 1.1 µM and inactive = higher.
Measurement Type: GI50

[[record]]
compound = "COc1cc(C2c3cc4c(cc3OC(N3CCCCC3)C2C)OCO4)cc(OC)c1OC (configuration not stated)"
system_under_test = "MDA-MB-231"
val = "4.98 µM (inactive)"

[[record]]
compound = "C[C@H](CC[C@@H](O)C(C)(C)O)[C@H]1CC[C@@]2(C)[C@@H]3CC=C4[C@@H](CC[C@H](O)C4(C)C)[C@]3(C)C(=O)C[C@]12C"
system_under_test = "MDA-MB-231"
val = "> 50 µM (inactive)"

[[record]]
compound = "O=C1c2ccccc2CN1c1ccc(OCCN2CCCCC2)cc1"
system_under_test = "MDA-MB-231"
val = "> 10 µM (inactive)"

[[record]]
compound = "CC(C)(C)C1(COC(=O)c2ccc(N)cc2)COC1"
system_under_test = "MDA-MB-231"
val = "52.1 µM (inactive)"

[[record]]
compound = "COC(=O)c1ccccc1OCc1cc(=O)oc2ccc(C)cc12"
system_under_test = "MDA-MB-231"
val = "84.9 µM (inactive)"

[[record]]
compound = "c1ccc2c(c1)SC1Sc3ccccc3[S+]21 (configuration not stated)"
system_under_test = "MDA-MB-231"
val = "23.7 µM (inactive)"

[[record]]
compound = "CC(=O)[C@]12OC(=O)C3=C1[C@H](CC[C@@H]3C)[C@@H](C)C[C@H]2C=C(C)C"
system_under_test = "MDA-MB-231"
val = "8.2 µM (inactive)"

[[record]]
compound = "N#CC(c1ccccc1)N(CCCCCCN(C(=O)c1ccccc1)C(C#N)c1ccccc1)C(=O)c1ccccc1 (configuration not stated)"
system_under_test = "MDA-MB-231"
val = "47.6 µM (inactive)"

[[record]]
compound = "Cc1cc(N(CCC#N)CCC#N)ccc1/C=N/NC(=O)c1cc(Cl)ccc1O"
system_under_test = "MDA-MB-231"
val = "> 100 µM (inactive)"

[[record]]
compound = "N#Cc1c2ccc([N+](=O)[O-])cc2c(=O)n2c1[nH]c1ccc(C(F)(F)F)cc12"
system_under_test = "MDA-MB-231"
val = "22.2 µM (inactive)"

[[record]]
compound = "CC1(C)CC(=O)C2=C(C1)C(c1ccccc1Cl)C1C(=O)CC(C)(C)CC1(O)O2 (configuration not stated)"
system_under_test = "MDA-MB-231"
val = "> 100 µM (inactive)"

[[record]]
compound = "O=[N+]([O-])c1ccccc1S(=O)(=O)N1CCCc2cc(Cl)ccc21"
system_under_test = "MDA-MB-231"
val = "> 56.5 µM (inactive)"

[[record]]
compound = "O=[N+]([O-])c1ccc(CN(CCCl)OCCCl)cc1"
system_under_test = "MDA-MB-231"
val = "> 100 µM (inactive)"

[[record]]
compound = "Cc1nc2c(O)cc3c4c(n(Cc5ccccc5)c3c2nc1C)C(=O)CCC4"
system_under_test = "MDA-MB-231"
val = "> 100 µM (inactive)"

[[record]]
compound = "N/N=C(\\Nc1ccccc1)SCc1ccccc1"
system_under_test = "MDA-MB-231"
val = "> 100 µM (inactive)"

[[record]]
compound = "CC(C)c1ccc2c(c1)CCC1C(C)(CN)CCCC21C (configuration not stated)"
system_under_test = "MDA-MB-231"
val = "1.42 µM (inactive)"

[[record]]
compound = "Cc1cc(-c2nc3ccc(F)cc3s2)ccc1NC(=O)[C@H](C)N"
system_under_test = "MDA-MB-231"
val = "10.4 µM (inactive)"

[[record]]
compound = "C=CCn1c(=O)c(C)cn(/C(=C/C(=O)OCC)C(=O)OCC)c1=O"
system_under_test = "MDA-MB-231"
val = "15.5 µM (inactive)"

[[record]]
compound = "Oc1cc(-c2ccccc2)nc2c(S)cccc12"
system_under_test = "MDA-MB-231"
val = "62.5 µM (inactive)"

[[record]]
compound = "CC12CCC(CC(=O)/C1=C(/Br)I)C2(C)C (configuration not stated)"
system_under_test = "MDA-MB-231"
val = "5.57 µM (inactive)"

[[record]]
compound = "CCOC(=O)C1C(=O)CC(C)(O)C(C(=O)OCC)C1c1ccc(OC)cc1 (configuration not stated)"
system_under_test = "MDA-MB-231"
val = "> 100 µM (inactive)"

[[record]]
compound = "O=C(O)c1cc(C(=O)C(=O)c2cc(C(=O)O)c(O)c3ccccc23)c2ccccc2c1O"
system_under_test = "MDA-MB-231"
val = "> 100 µM (inactive)"

